# Protocol Summary: drug combination growth inhibition, ovarian cancer – cell-based, oncology-focused library, rucaparib conditional, profiling panel (AID 1508598)
# Experimental Setup: patient-derived ovarian cancer cells, CellTiter-Glo viability, 144 h; at 5 µM; OCI-C5x cells; with rucaparib 10 µM; stronger effect = lower value; 100% = cells with rucaparib alone
Could you please report measured viability for the items listed next?
I only need the number, in %, no unit after it.

(Q) Look up viability: O=C(O)CCC1CCC(c2cc(F)ccc2F)(S(=O)(=O)c2ccc(Cl)cc2)CC1 (stereo not given)
(A) 114

(Q) Look up viability: Cc1ccc(C(=O)N(CCCN)[C@@H](c2nc3cc(Cl)ccc3c(=O)n2Cc2ccccc2)C(C)C)cc1
(A) 6.32

(Q) Look up viability: COc1cc2nccc(Oc3ccc(NC(=O)NC4CC4)c(Cl)c3)c2cc1C(N)=O
(A) 142

(Q) Look up viability: C=CCn1c(=O)c2cnc(Nc3ccc(N4CCN(C)CC4)cc3)nc2n1-c1cccc(C(C)(C)O)n1
(A) 35.9

(Q) Look up viability: NC(=O)C1CCCc2c1[nH]c1ccc(Cl)cc21 (stereo not given)
(A) 100

(Q) Look up viability: Nc1ccc(C(=O)Nc2cccc(-c3nc(N4CCOCC4)c4oc5ncccc5c4n3)c2)cn1
(A) 178

(Q) Look up viability: O=C(NC1CCNCC1)c1[nH]ncc1NC(=O)c1c(Cl)cccc1Cl
(A) 13

(Q) Look up viability: COc1cc(Nc2ncc3c(n2)-c2ccc(Cl)cc2C(c2c(F)cccc2OC)=NC3)ccc1C(=O)O
(A) 42.9

(Q) Look up viability: CS(=O)(=O)N1CCc2c(-c3cnc(N)nc3)nc(N3CCOCC3)nc21
(A) 39.2

(Q) Look up viability: NC1(c2ccc(-c3nc4ccn5c(=O)[nH]nc5c4cc3-c3ccccc3)cc2)CCC1
(A) 134

From: PubChem BioAssay
